- Test protocol: Growth inhibition of human OVCAR3 cells incubated for 48 hrs by sulforhodamine B assay
- Format: functional
- Condition notes: OVCAR-3, 48 h, read-out: TGI
Outcome measure: TGI (µM)

Compound structure string: c1ccc2[nH]c(-c3ccc(Nc4nc(N5CCCCC5)nc(N5CCOCC5)n4)cc3)nc2c1
Outcome measure: TGI
Readout value: 6.19

Compound structure string: Clc1ccc(-c2nc(Nc3ccc(-c4nc5ccccc5[nH]4)cc3)nc(N3CCOCC3)n2)cc1
Outcome measure: TGI
Readout value: 1.37

Compound structure string: Fc1ccc(-c2nc(Nc3ccc(-c4nc5ccccc5[nH]4)cc3)nc(N3CCOCC3)n2)cc1
Outcome measure: TGI
Readout value: 3.91

Compound structure string: c1ccc(-c2nc(Nc3ccc(-c4nc5ccccc5[nH]4)cc3)nc(N3CCOCC3)n2)cc1
Outcome measure: TGI
Readout value: 2.98

* * *

Quick reference for GI50 among some compounds
- Test protocol: Growth inhibition of human OVCAR4 cells incubated for 48 hrs by sulforhodamine B assay
- Format: functional
- Condition notes: OVCAR-4, 48 h, read-out: pGI50 (converted)

Compound structure string: c1ccc2[nH]c(-c3ccc(Nc4nc(N5CCCCC5)nc(N5CCOCC5)n4)cc3)nc2c1
GI50: 3.98 µM
//
Compound structure string: Clc1ccc(-c2nc(Nc3ccc(-c4nc5ccccc5[nH]4)cc3)nc(N3CCOCC3)n2)cc1
GI50: 1.05 µM
//
Compound structure string: Fc1ccc(-c2nc(Nc3ccc(-c4nc5ccccc5[nH]4)cc3)nc(N3CCOCC3)n2)cc1
GI50: 3.16 µM
//
Compound structure string: c1ccc(-c2nc(Nc3ccc(-c4nc5ccccc5[nH]4)cc3)nc(N3CCOCC3)n2)cc1
GI50: 1.7 µM

* * *

- Test protocol: Growth inhibition of human breast cancer cells incubated for 48 hrs by sulforhodamine B assay
- Assay type: functional
- Condition notes: Cancer cell lines, read-out: LC50 (the source's name)

Compound structure string: Clc1ccc(-c2nc(Nc3ccc(-c4nc5ccccc5[nH]4)cc3)nc(N3CCOCC3)n2)cc1
Readout qualifier: >
CC50 (µM): 100
//
Compound structure string: c1ccc2[nH]c(-c3ccc(Nc4nc(N5CCCCC5)nc(N5CCOCC5)n4)cc3)nc2c1
Readout qualifier: =
CC50 (µM): 92.7
//
Compound structure string: Fc1ccc(-c2nc(Nc3ccc(-c4nc5ccccc5[nH]4)cc3)nc(N3CCOCC3)n2)cc1
Readout qualifier: >
CC50 (µM): 100
//
Compound structure string: c1ccc(-c2nc(Nc3ccc(-c4nc5ccccc5[nH]4)cc3)nc(N3CCOCC3)n2)cc1
Readout qualifier: =
CC50 (µM): 8.74

* * *

Quick reference for GI50 among some compounds
- Test protocol: Growth inhibition of human RXF393 cells incubated for 48 hrs by sulforhodamine B assay
- Type: functional
- Condition notes: RXF 393, 48 h, read-out: pGI50 (converted)

Compound structure string: c1ccc2[nH]c(-c3ccc(Nc4nc(N5CCCCC5)nc(N5CCOCC5)n4)cc3)nc2c1
Unit descriptor: nM
GI50: 813
--
Compound structure string: Clc1ccc(-c2nc(Nc3ccc(-c4nc5ccccc5[nH]4)cc3)nc(N3CCOCC3)n2)cc1
Unit descriptor: nM
GI50: 224
--
Compound structure string: c1ccc(-c2nc(Nc3ccc(-c4nc5ccccc5[nH]4)cc3)nc(N3CCOCC3)n2)cc1
Unit descriptor: nM
GI50: 501
--
Compound structure string: Fc1ccc(-c2nc(Nc3ccc(-c4nc5ccccc5[nH]4)cc3)nc(N3CCOCC3)n2)cc1
Unit descriptor: nM
GI50: 457

* * *

- Test protocol: Growth inhibition of human PC3 cells incubated for 48 hrs by sulforhodamine B assay
- Assay type: functional
- Condition notes: PC-3, 48 h, read-out: TGI

Compound structure string: c1ccc(-c2nc(Nc3ccc(-c4nc5ccccc5[nH]4)cc3)nc(N3CCOCC3)n2)cc1
TGI: 3.64 µM
//
Compound structure string: c1ccc2[nH]c(-c3ccc(Nc4nc(N5CCCCC5)nc(N5CCOCC5)n4)cc3)nc2c1
TGI: 9.13 µM
//
Compound structure string: Fc1ccc(-c2nc(Nc3ccc(-c4nc5ccccc5[nH]4)cc3)nc(N3CCOCC3)n2)cc1
TGI: 6.66 µM
//
Compound structure string: Clc1ccc(-c2nc(Nc3ccc(-c4nc5ccccc5[nH]4)cc3)nc(N3CCOCC3)n2)cc1
TGI: 1.33 µM

* * *

Quick reference for growth at 10 µM among some compounds
- Test protocol: Growth inhibition of human OVCAR5 cells assessed as cell growth at 10^-5 M incubated for 48 hrs by sulforhodamine B assay
- Assay type: functional
- Condition notes: OVCAR-5, 48 h, read-out: Activity

Compound structure string: Clc1ccc(-c2nc(Nc3ccc(-c4nc5ccccc5[nH]4)cc3)nc(N3CCOCC3)n2)cc1
growth at 10 µM (%): -79
--
Compound structure string: c1ccc2[nH]c(-c3ccc(Nc4nc(N5CCCCC5)nc(N5CCOCC5)n4)cc3)nc2c1
growth at 10 µM (%): 16
--
Compound structure string: Fc1ccc(-c2nc(Nc3ccc(-c4nc5ccccc5[nH]4)cc3)nc(N3CCOCC3)n2)cc1
growth at 10 µM (%): -5
--
Compound structure string: c1ccc(-c2nc(Nc3ccc(-c4nc5ccccc5[nH]4)cc3)nc(N3CCOCC3)n2)cc1
growth at 10 µM (%): -73

* * *

- Tested on: Malme-3M
- Test protocol: Growth inhibition of human MALME-3M cells assessed as cell growth at 10 uM incubated for 48 hrs by sulforhodamine B assay
- Type: functional
- Condition notes: read-out: Activity
Quick reference for growth at 10 µM among some compounds

Compound structure string: c1ccc2[nH]c(-c3ccc(Nc4nc(N5CCCCC5)nc(N5CCOCC5)n4)cc3)nc2c1
Unit descriptor: %
growth at 10 µM: -50.2
--
Compound structure string: c1ccc(-c2nc(Nc3ccc(-c4nc5ccccc5[nH]4)cc3)nc(N3CCOCC3)n2)cc1
Unit descriptor: %
growth at 10 µM: -77.3
--
Compound structure string: Fc1ccc(-c2nc(Nc3ccc(-c4nc5ccccc5[nH]4)cc3)nc(N3CCOCC3)n2)cc1
Unit descriptor: %
growth at 10 µM: -65.7
--
Compound structure string: Clc1ccc(-c2nc(Nc3ccc(-c4nc5ccccc5[nH]4)cc3)nc(N3CCOCC3)n2)cc1
Unit descriptor: %
growth at 10 µM: -73.4

* * *

- Test protocol: Growth inhibition of human TK10 cells incubated for 48 hrs by sulforhodamine B assay
- Assay type: functional
- Condition notes: TK-10, 48 h, read-out: pGI50 (converted)
Quick reference for GI50 among some compounds

Compound structure string: c1ccc2[nH]c(-c3ccc(Nc4nc(N5CCCCC5)nc(N5CCOCC5)n4)cc3)nc2c1
GI50 [µM]: 3.24
--
Compound structure string: Clc1ccc(-c2nc(Nc3ccc(-c4nc5ccccc5[nH]4)cc3)nc(N3CCOCC3)n2)cc1
GI50 [µM]: 1.95
--
Compound structure string: Fc1ccc(-c2nc(Nc3ccc(-c4nc5ccccc5[nH]4)cc3)nc(N3CCOCC3)n2)cc1
GI50 [µM]: 2.88
--
Compound structure string: c1ccc(-c2nc(Nc3ccc(-c4nc5ccccc5[nH]4)cc3)nc(N3CCOCC3)n2)cc1
GI50 [µM]: 2.14

* * *

Quick reference for GI50 among some compounds
- Tested on: SK-MEL-28
- Test protocol: Growth inhibition of human SK-MEL-28 cells incubated for 48 hrs by sulforhodamine B assay
- Assay type: functional
- Condition notes: SK-MEL-28, 48 h, read-out: pGI50 (converted)
Outcome measure: GI50 (nM)

Compound structure string: c1ccc2[nH]c(-c3ccc(Nc4nc(N5CCCCC5)nc(N5CCOCC5)n4)cc3)nc2c1
Outcome measure: GI50
Readout value: 1820
//
Compound structure string: Fc1ccc(-c2nc(Nc3ccc(-c4nc5ccccc5[nH]4)cc3)nc(N3CCOCC3)n2)cc1
Outcome measure: GI50
Readout value: 1780
//
Compound structure string: c1ccc(-c2nc(Nc3ccc(-c4nc5ccccc5[nH]4)cc3)nc(N3CCOCC3)n2)cc1
Outcome measure: GI50
Readout value: 1550
//
Compound structure string: Clc1ccc(-c2nc(Nc3ccc(-c4nc5ccccc5[nH]4)cc3)nc(N3CCOCC3)n2)cc1
Outcome measure: GI50
Readout value: 1580

* * *

Quick reference for growth at 0.1 µM among some compounds
- System: T47D
- Test protocol: Growth inhibition of human T47D cells assessed as cell growth at 10^-7 M incubated for 48 hrs by sulforhodamine B assay
- Type: functional
- Condition notes: read-out: Activity
Outcome measure: growth at 0.1 µM (%)

Compound structure string: Clc1ccc(-c2nc(Nc3ccc(-c4nc5ccccc5[nH]4)cc3)nc(N3CCOCC3)n2)cc1
Readout value: 92
--
Compound structure string: Fc1ccc(-c2nc(Nc3ccc(-c4nc5ccccc5[nH]4)cc3)nc(N3CCOCC3)n2)cc1
Readout value: 93
--
Compound structure string: c1ccc(-c2nc(Nc3ccc(-c4nc5ccccc5[nH]4)cc3)nc(N3CCOCC3)n2)cc1
Readout value: 109
--
Compound structure string: c1ccc2[nH]c(-c3ccc(Nc4nc(N5CCCCC5)nc(N5CCOCC5)n4)cc3)nc2c1
Readout value: 94
